Molecular target: UBE2J1
Assay: reporter assay of Huesken 2005
Settings: siRNA
Oligonucleotides are written 5' to 3', each unit as a sugar letter and its base; * is a phosphorothioate linkage, no mark a phosphodiester; rarer units and linkages stand in square brackets, end groups in braces. Plain capitals give the bases only. d = 2'-deoxy (DNA); r = 2'-OH (RNA)
So basically: normalised inhibition (eCFP-eYFP dual reporter) at 70% or higher? That is fulfilled. Lower than 70%? That is not fulfilled.

### Prompt Hi, just wondering whether sense rArGrArGrArArGrGrUrUrGrUrCrUrArCrUrUrCdTdT / antisense rGrArArGrUrArGrArCrArArCrCrUrUrCrUrCrUdGdA shows normalised inhibition (eCFP-eYFP dual reporter) of 70% or higher.
### Response fulfilled

### Prompt Hi, just wondering whether sense rGrUrUrGrCrCrUrUrUrArArArArUrCrUrGrGrAdTdT / antisense rUrCrCrArGrArUrUrUrUrArArArGrGrCrArArCdAdG shows normalised inhibition (eCFP-eYFP dual reporter) of 70% or higher.
### Response not fulfilled

### Prompt Hi, just wondering whether sense rArUrUrUrArCrArArGrArUrGrArUrArUrArCrCdTdT / antisense rGrGrUrArUrArUrCrArUrCrUrUrGrUrArArArUdCdA shows normalised inhibition (eCFP-eYFP dual reporter) of 70% or higher.
### Response not fulfilled

### Prompt Hi, just wondering whether sense rCrUrCrUrUrArUrArUrUrCrCrGrArCrGrArArUdTdT / antisense rArUrUrCrGrUrCrGrGrArArUrArUrArArGrArGdCdT shows normalised inhibition (eCFP-eYFP dual reporter) of 70% or higher.
### Response fulfilled

### Prompt Hi, just wondering whether sense rUrGrGrUrGrGrGrUrCrArGrCrUrGrUrArCrUrGdTdT / antisense rCrArGrUrArCrArGrCrUrGrArCrCrCrArCrCrAdTdG shows normalised inhibition (eCFP-eYFP dual reporter) of 70% or higher.
### Response fulfilled

All values here come from the OligoGym collection.
